Biological target: UniProt Q28021
Sequence (Q28021 92-354 limits assumed): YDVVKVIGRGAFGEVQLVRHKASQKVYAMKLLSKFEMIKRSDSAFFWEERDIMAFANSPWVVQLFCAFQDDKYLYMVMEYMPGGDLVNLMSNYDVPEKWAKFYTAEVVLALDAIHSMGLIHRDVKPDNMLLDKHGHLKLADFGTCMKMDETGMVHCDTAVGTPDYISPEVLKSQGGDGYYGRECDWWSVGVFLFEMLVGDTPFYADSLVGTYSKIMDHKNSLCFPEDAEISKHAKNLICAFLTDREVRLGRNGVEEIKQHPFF
Test: Rho kinase inhibitory activity (phosphorylation of S6 231–239 substrate, γ32P-ATP)
Conditions: concentration inhibiting substrate phosphorylation by 50%
Note to self: IC50 under 500 nM means t, ties and anything higher get f.

Q: Problem: For the compound O=C(Nc1ccncc1)Nc1c(F)cc(F)cc1Br [Example 57] , is IC50 under 500 nM?
A: f

Q: Problem: For the compound Clc1ccc(CN2CCCC(Nc3ccc4[nH]ncc4c3)C2)cc1 (centres unmarked) [Example 163] , is IC50 under 500 nM?
A: t

Q: Problem: For the compound O=C(CC1CCCCC1)Nc1ccc2[nH]ncc2c1 [Example 34, N1-(1H-5-Indazoyl)-1-cyclohexylacetamide] , is IC50 under 500 nM?
A: f

Q: Problem: For the compound O=C(NCc1ccccc1[N+](=O)[O-])Nc1ccc2c(c1)C(=O)NC2=O [Example 86] , is IC50 under 500 nM?
A: f

Q: Problem: For the compound Fc1ccc(CN2CCCC(Nc3ccc4[nH]ncc4c3)C2)cc1 (centres unmarked) [Example 164] , is IC50 under 500 nM?
A: t

Q: Problem: For the compound O=[N+]([O-])c1ccc(CN2CCC(Nc3ccc4[nH]ncc4c3)C2)cc1 (centres unmarked) [Example 159] , is IC50 under 500 nM?
A: t

Q: Problem: For the compound O=C(NCc1c(F)cccc1C(F)(F)F)Nc1ccncc1 [Example 64] , is IC50 under 500 nM?
A: f

Q: Problem: For the compound COc1ccc(/C=C/C(=O)Nc2ccc3[nH]ncc3c2)cc1OC [Example 42] , is IC50 under 500 nM?
A: f

Q: Problem: For the compound O=C(NCc1c(F)ccc(F)c1F)Nc1ccc2[nH]ncc2c1 [Example 110] , is IC50 under 500 nM?
A: t

Q: Problem: For the compound O=C(CNc1ccc(O)cc1)Nc1ccc2[nH]ncc2c1 [Example 50] , is IC50 under 500 nM?
A: t

Q: Problem: For the compound O=C(COc1c(Cl)cc(F)cc1Cl)Nc1ccncc1 [Example 24] , is IC50 under 500 nM?
A: t

Q: Problem: For the compound O=C(Nc1ccncc1)Nc1c(Cl)cc(C(F)(F)F)cc1Cl [Example 63] , is IC50 under 500 nM?
A: f

Q: Problem: For the compound O=C(NCc1c(Cl)ccc(Cl)c1Cl)Nc1ccc2[nH]ncc2c1 [Example 101] , is IC50 under 500 nM?
A: f

Q: Problem: For the compound O=C(NCc1c(F)cccc1Cl)Nc1ccc2c(c1)C(=O)NC2=O [Example 83] , is IC50 under 500 nM?
A: t

Q: Problem: For the compound COc1cc(/C=C/C(=O)Nc2ccc3[nH]ncc3c2)ccc1O [Example 40] , is IC50 under 500 nM?
A: t

Q: Problem: For the compound Cc1cc(Cl)c(OCC(=O)Nc2ccncc2)c(Cl)c1 [Example 30] , is IC50 under 500 nM?
A: f

Q: Problem: For the compound COc1cc(CN2CCC(Nc3ccc4[nH]ncc4c3)CC2)cc(OC)c1 [Example 143] , is IC50 under 500 nM?
A: t

Q: Problem: For the compound Clc1cc2c(cc1CN1CCC(Nc3ccc4[nH]ncc4c3)CC1)OCO2 [Example 144] , is IC50 under 500 nM?
A: t

Q: Problem: For the compound c1ccc(Oc2cccc(CN3CCC(Nc4ccc5[nH]ncc5c4)CC3)c2)cc1 [Example 123] , is IC50 under 500 nM?
A: t

Q: Problem: For the compound O=C(NCc1c(F)c(F)c(F)c(F)c1F)Nc1ccncc1 [Example 97] , is IC50 under 500 nM?
A: f

Q: Problem: For the compound O=C(CC1CCCCC1)Nc1ccncc1 [Example 31, N1-(4-Pyridyl)-2-cyclohexylacetamide] , is IC50 under 500 nM?
A: f

Q: Problem: For the compound Nc1ccccc1CNC(=O)Nc1ccc2c(c1)C(=O)NC2=O [Example 87] , is IC50 under 500 nM?
A: t

Q: Problem: For the compound Clc1ccc(CN2CCC(Nc3ccc4[nH]ncc4c3)CC2)cc1Cl [Example 114] , is IC50 under 500 nM?
A: t

Q: Problem: For the compound O=C(COc1c(F)cc(F)cc1F)Nc1ccncc1 [Example 28] , is IC50 under 500 nM?
A: f

Q: Problem: For the compound CCOC(=O)c1cc(Cl)c(OCC(=O)Nc2ccncc2)c(Cl)c1 [Example 26] , is IC50 under 500 nM?
A: f

Q: Problem: For the compound O=[N+]([O-])c1cccc(CN2CCC(Nc3ccc4[nH]ncc4c3)CC2)c1 [Example 140] , is IC50 under 500 nM?
A: t

Q: Problem: For the compound Clc1ccccc1CN1CCCC(Nc2ccc3[nH]ncc3c2)C1 (centres unmarked) [Example 161] , is IC50 under 500 nM?
A: t

Q: Problem: For the compound O=C(Nc1ccncc1)Nc1c[nH]c2ccccc12 [Example 66, N-(1H-3-Indolyl)-N′-(4-pyridyl)urea] , is IC50 under 500 nM?
A: f

Q: Problem: For the compound O=C(NCc1c(F)cccc1F)Nc1ccncc1 [Example 61] , is IC50 under 500 nM?
A: f

Q: Problem: For the compound O=C(/C=C/c1ccccc1O)Nc1ccc2[nH]ncc2c1 [Example 35] , is IC50 under 500 nM?
A: f

Q: Problem: For the compound O=C(NCc1c(Cl)cccc1Cl)Nc1cc2c(cc1Cl)C(=O)NC2=O [Example 81] , is IC50 under 500 nM?
A: t

Q: Problem: For the compound O=C(Nc1ccncc1)Nc1ccc(Br)cc1F [Example 60] , is IC50 under 500 nM?
A: f

Q: Problem: For the compound Cc1ccc(CN2CCC(Nc3ccc4[nH]ncc4c3)CC2)cc1[N+](=O)[O-] [Example 124] , is IC50 under 500 nM?
A: t

Q: Problem: For the compound O=C(NCc1c(F)ccc(F)c1F)Nc1ccncc1 [Example 108] , is IC50 under 500 nM?
A: f

Q: Problem: For the compound COc1cc(CN2CCC(Nc3ccc4[nH]ncc4c3)C2)cc(OC)c1 (centres unmarked) [Example 160] , is IC50 under 500 nM?
A: t

Q: Problem: For the compound O=C(NCC1CCCCC1)Nc1ccc2[nH]ncc2c1 [Example 105] , is IC50 under 500 nM?
A: t

Q: Problem: For the compound O=C(CCc1ccc(O)cc1)Nc1ccc2[nH]ncc2c1 [Example 47] , is IC50 under 500 nM?
A: f

Q: Problem: For the compound c1cncc(CN2CCC(Nc3ccc4[nH]ncc4c3)CC2)c1 [Example 132] , is IC50 under 500 nM?
A: f
